system: turtle Estrogen Receptor (ERa), gene 101933533; assay: ATG_trERa_XSP2: Attagene TRANS-FACTORIAL Multi-Species (XSP2) HepG2 Assay for turtle Estrogen Receptor (ERa) (AID 2283812);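 note: human HepG2 liver cells transiently expressing turtle ERa-Gal4 chimeric receptor; reporter mRNA from GAL4-UAS units measured by RT-PCR and capillary electrophoresis; actives raise reporter signal above DMSO so AC50 reflects agonist activity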
Records with an inconclusive call do not appear. Activity calls are given as the source filed them. Rule for the calls: active = hit-call score of the fitted dose curve at least 0.9, where 1 is the maximum; inconclusive = response in the unintended direction; inactive = score below 0.9.
Lab note: assign the record to one of yes (1) = active, no (0) = inactive

CC/C(=C(/CC)c1ccc(O)cc1)c1ccc(O)cc1 = yes (1)

-- ask Check the results log: what was the call for C[C@]12CC[C@@H]3c4ccc(O)cc4CC[C@H]3[C@@H]1CCC2=O ?
-- reply yes (1)

-- ask Check the results log: what was the call for CC(C)(c1cc(Br)c(O)c(Br)c1)c1cc(Br)c(O)c(Br)c1 ?
-- reply no (0)

-- ask Check the results log: what was the call for Cc1c2ccccc2c(C)c2c1ccc1ccccc12 ?
-- reply yes (1)

-- ask Check the results log: what was the call for O=C(O)Cc1cc(I)c(Oc2ccc(O)c(I)c2)c(I)c1 ?
-- reply no (0)

* * *

target: Nuclear receptor subfamily 1 group I member 2 (Homo sapiens); experiment: NVS_NR_hPXR: NovaScreen (NVS) Nuclear Receptor Binding Assay for human Pregnane X Receptor (PXR) (AID 2283365);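 note: a drop in FRET signal versus DMSO baseline means the compound binds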
Records with an inconclusive call do not appear. Activity calls are given as the source filed them. The calls were made as follows: active = hit-call score of the fitted dose curve at least 0.9, where 1 is the maximum; inconclusive = response in the unintended direction; inactive = score below 0.9.
Lab note: assign the record to one of True = active, False = inactive

O=C(O)Cc1cc(I)c(Oc2ccc(O)c(I)c2)c(I)c1 = False
O=c1c(-c2ccc(O)cc2)coc2cc(O)cc(O)c12 = False

-- ask Check the results log: what was the call for CN(C[C@@H](CC[N+]12CCC(C3CCCCC3)(CC1)CC2)c1ccc(Cl)c(Cl)c1)C(=O)c1cc(C(F)(F)F)cc(C(F)(F)F)c1 ?
-- reply True

-- ask Check the results log: what was the call for CCN(CC)C(=O)c1cc(S(=O)(=O)Cc2ccccc2)c(N2CCC(c3ccccc3)CC2)cc1N(CC)CCN(C)C ?
-- reply True

-- ask Check the results log: what was the call for CN(C)c1ccc(C(=C2C=CC(=[N+](C)C)C=C2)c2ccc(N(C)C)cc2)cc1 ?
-- reply True

* * *

test: CCTE_Mundy_HCI_Cortical_Synap_Neur_Matur_SynapseCount: CCTE's Synaptogenesis and Neurite Maturation Assay in rat cortical cells for Synapse Count, Mundy Lab (AID 2284218)
Active and inactive are the calls of the source. How the source made its calls: active means hit-call score of the fitted dose curve at least 0.9, where 1 is the maximum; inactive means score below 0.9.
Lab note: assign the record to one of active, inactive

O=C1O[C@H]([C@@H](O)CO)C(O)=C1O = inactive
CC/C(=C(/CC)c1ccc(O)cc1)c1ccc(O)cc1 = active
Oc1ccccc1 = inactive

Query compound follows.
-- ask Check the results log: what was the call for CN1C(=O)CC[C@H]1c1cccnc1 ?
-- reply inactive

* * *

assay: CCTE_Shafer_MEA_acute_burst_duration_mean: CCTE's Neural Acute Assay for Mean Burst Duration, Shafer Lab (AID 2284014);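 note: hits are decreases in mean burst duration relative to DMSO controls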
The source made the active and inactive calls. The calls were made as follows: active = hit-call score of the fitted dose curve at least 0.9, where 1 is the maximum; inactive = score below 0.9.
Lab note: assign the record to one of active, inactive

Recorded results for 3 molecules are shown here.
CCCCCCCCCCCCO = inactive
CN(C)c1ccc(C(=C2C=CC(=[N+](C)C)C=C2)c2ccc(N(C)C)cc2)cc1 = inactive
CCCCOC(=O)c1ccc(O)cc1 = inactive

Query molecule follows.
-- ask Check the results log: what was the call for CC(C)(c1cc(Br)c(O)c(Br)c1)c1cc(Br)c(O)c(Br)c1 ?
-- reply inactive

* * *

read-out: CYP2E1 (gene 1571); test: LTEA_HepaRG_CYP2E1: Life Technologies and Expression Analysis (LTEA) Assay for CYP2E1 using HepaRG (AID 2283485); conditions: mRNA level, 48 h; actives raise or lower the signal
Calls of active or inactive are those of the source. Rule for the calls: active = hit-call score of the fitted dose curve at least 0.9, where 1 is the maximum; inactive = score below 0.9.
reported metric: AC50

Below: 5 compounds and their reported AC50.
O=C(O)Cn1c(=O)n(Cc2ccc(Br)cc2F)c(=O)c2ccc(Cl)cc21 = 25.8 µM (active)
CCOC(=O)O[C@H](C)OC(=O)c1ccc2c(c1)cc(C(=O)NC1CCN(C(C)C)CC1)n2Cc1cc(-c2ccc(Cl)s2)on1 = inactive
Cc1ccc2oc(CN(Cc3ccccc3)C(=O)Nc3c(F)cc(F)cc3F)c(-c3ccc(Cl)cc3)c2c1 = 28.4 µM (active)
OCCO = inactive
Cc1cn([C@H]2C[C@H](N=[N+]=[N-])[C@@H](CO)O2)c(=O)[nH]c1=O = inactive

// next entry
-- ask Return AC50 (reported value) for this compound: Cc1c2ccccc2c(C)c2c1ccc1ccccc12
-- reply 18.8 µM (active)

* * *

assay: BSK_3C_SRB: Viability Assessment in the BioMAP Diversity Plus: 3C Assay (AID 2283023); settings: primary human endothelial cells (HUVEC);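 note: cells read 24 h after compound dosing; fitted both ways against DMSO so a hit may be signal rise or drop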
The source made the active and inactive calls. Rule for the calls: active = hit-call score of the fitted dose curve at least 0.9, where 1 is the maximum; inactive = score below 0.9.
Lab note: assign the record to one of active, inactive

Cc1cn([C@H]2C[C@H](N=[N+]=[N-])[C@@H](CO)O2)c(=O)[nH]c1=O = inactive
OC12N=C(c3ccccc3)SC1Cc1cc(Cl)ccc12 (stereo not drawn) = active
Cc1occc1C(=O)Nc1ccc(C(=O)N2CCC(F)(F)/C(=C\C(=O)N3CCC(N4CCCCC4)CC3)c3ccccc32)cc1 = active

-- ask Check the results log: what was the call for C[C@]12CC[C@@H]3c4ccc(O)cc4CC[C@H]3[C@@H]1CC[C@H]2O ?
-- reply active

-- ask Check the results log: what was the call for Cc1c2ccccc2c(C)c2c1ccc1ccccc12 ?
-- reply active

* * *

read-out: Monokine induced gamma interferon (MIG), CXCL9 (gene 4283); experiment: BSK_3C_MIG: BioMAP Diversity Plus: 3C Assay for Monokine induced gamma interferon (MIG) Biomarker Activity (AID 2283021); conditions: primary human endothelial cells (HUVEC); actives raise or lower the signal
The source made the active and inactive calls. The calls were made as follows: active = hit-call score of the fitted dose curve at least 0.9, where 1 is the maximum; inactive = score below 0.9.
Lab note: assign the record to one of label 1 = active, label 0 = inactive

Recorded results for 5 compounds are shown here.
CC(O)CC(C)(C)O (centres undefined) = label 0
CCN(Cc1cccnc1)C(=O)c1cccc(Cl)c1[C@]1(C)C(=O)N(Cc2ccc(OC)cc2OC)c2ccc(Cl)cc21 = label 0
COCC(C)OCC(C)OCC(C)O (centres undefined) = label 0
Oc1ccc2ccccc2c1 = label 0
NCc1cccc(C2CCN(C(=O)c3ccc(C#Cc4ccccc4F)o3)CC2)c1 = label 1

-- ask Check the results log: what was the call for CCCCCCCCN(C)CCCCCCCC ?
-- reply label 0

-- ask Check the results log: what was the call for CC(=O)N1CCN(c2ccc(OC[C@H]3CO[C@](Cn4ccnc4)(c4ccc(Cl)cc4Cl)O3)cc2)CC1 ?
-- reply label 1

-- ask Check the results log: what was the call for CCCCCCCCCCCC[N+](C)(C)C ?
-- reply label 1

-- ask Check the results log: what was the call for CN(C)c1ccc(C(=C2C=CC(=[N+](C)C)C=C2)c2ccc(N(C)C)cc2)cc1 ?
-- reply label 1

-- ask Check the results log: what was the call for CN(C[C@@H](CC[N+]12CCC(C3CCCCC3)(CC1)CC2)c1ccc(Cl)c(Cl)c1)C(=O)c1cc(C(F)(F)F)cc(C(F)(F)F)c1 ?
-- reply label 1

-- ask Check the results log: what was the call for CCO[Si](CCCNC(N)=O)(OCC)OCC ?
-- reply label 0

-- ask Check the results log: what was the call for c1ccc(C[n+]2cccc3ccccc32)cc1 ?
-- reply label 0

-- ask Check the results log: what was the call for O=C=NCCCCCCN=C=O ?
-- reply label 0

-- ask Check the results log: what was the call for CN(C)C(=O)C1(N2CCCCC2)CCN(CC[C@@]2(c3ccc(Cl)c(Cl)c3)CN(C(=O)c3ccccc3)CCO2)CC1 ?
-- reply label 1

-- ask Check the results log: what was the call for OC12N=C(c3ccccc3)SC1Cc1cc(Cl)ccc12 (centres undefined) ?
-- reply label 0

-- ask Check the results log: what was the call for CC[C@H](NC(=O)c1cc(F)ccc1NS(=O)(=O)c1cccc2cccnc12)c1ccccc1 ?
-- reply label 0

-- ask Check the results log: what was the call for CC(C)(C)c1cc(/C=C2\SC(N)=NC2=O)cc(C(C)(C)C)c1O ?
-- reply label 1

-- ask Check the results log: what was the call for Oc1ccccc1 ?
-- reply label 0

-- ask Check the results log: what was the call for CCCCOC(=O)c1ccc(O)cc1 ?
-- reply label 0

-- ask Check the results log: what was the call for Cc1ccc(C(C)C)cc1 ?
-- reply label 0

* * *

assay: BSK_KF3CT_SRB: Viability Assessment in the BioMAP Diversity Plus: KF3CT Assay (AID 2283069); settings: primary human keratinocytes with fibroblasts;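 note: total protein by sulforhodamine B staining as a cytotoxicity measure; read 24 h after compound addition; fitted for both signal gain and loss against DMSO baseline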
The source made the active and inactive calls. How the source made its calls: active means hit-call score of the fitted dose curve at least 0.9, where 1 is the maximum; inactive means score below 0.9.
Lab note: assign the record to one of active, inactive

CCCCCCCC[Si](OCC)(OCC)OCC = inactive

-- ask Check the results log: what was the call for O=C1c2ccccc2C(=O)N1CCc1noc(-c2ccc(CN3CCCCCC3)s2)n1 ?
-- reply inactive

-- ask Check the results log: what was the call for Clc1ccccc1C(c1ccccc1)(c1ccccc1)n1ccnc1 ?
-- reply active

-- ask Check the results log: what was the call for CN(C[C@@H](CC[N+]12CCC(C3CCCCC3)(CC1)CC2)c1ccc(Cl)c(Cl)c1)C(=O)c1cc(C(F)(F)F)cc(C(F)(F)F)c1 ?
-- reply active

-- ask Check the results log: what was the call for CO[C@H]1/C=C/O[C@@]2(C)Oc3c(C)c(O)c4c(O)c(c(/C=N/N5CCN(C)CC5)c(O)c4c3C2=O)NC(=O)/C(C)=C\C=C\[C@H](C)[C@H](O)[C@@H](C)[C@@H](O)[C@@H](C)[C@H](OC(C)=O)[C@@H]1C ?
-- reply inactive

-- ask Check the results log: what was the call for NC(=O)c1nc(-c2cccc(-c3cc(F)ccc3OCC(F)(F)C(F)(F)F)c2)n[nH]1 ?
-- reply active
